src = patent US20230129438A1

Assignment: determine reported IL-Iβ OS of LPS for the given molecules.
- Tested on: IL-1β
- Assay Text: Bovine whole blood assay, IL-1β
- Assay type: cell-based
- Condition Notes: drug concentration giving overstimulation of IL-1β over LPS (cellular toxicity signal)
Numbers only; they are read as µM.

Any idea what its IL-Iβ OS of LPS is? The molecule is CCNC[C@]1(O)[C@H](C)O[C@@H](O[C@H]2[C@H](C)[C@@H](O[C@@H]3O[C@H](C)C[C@H]4[C@H]3OC(=Nc3ccc(OC)cc3)N4C)[C@](C)(O)C[C@@H](C)CN[C@H](C)[C@@H](O)[C@](C)(O)[C@@H](CC)OC(=O)[C@@H]2C)C[C@@]1(C)OC (mixture of isomers) [Example A-12]
32

Any idea what its IL-Iβ OS of LPS is? The molecule is CCNC[C@]1(O)[C@H](C)O[C@@H](O[C@H]2[C@H](C)[C@@H](O[C@@H]3O[C@H](C)C[C@H]4[C@H]3OC(=Nc3ccccc3)N4C)[C@](C)(O)C[C@@H](C)CN[C@H](C)[C@@H](O)[C@](C)(O)[C@@H](CC)OC(=O)[C@@H]2C)C[C@@]1(C)OC (mixture of isomers) [Example A-3]
5

Any idea what its IL-Iβ OS of LPS is? The molecule is CCCNC[C@]1(O)[C@H](C)O[C@@H](O[C@H]2[C@H](C)[C@@H](O[C@@H]3O[C@H](C)C[C@H]4[C@H]3OC(=Nc3ccc(OC)cc3)N4C)[C@](C)(O)C[C@@H](C)CN[C@H](C)[C@@H](O)[C@](C)(O)[C@@H](CC)OC(=O)[C@@H]2C)C[C@@]1(C)OC (mixture of isomers) [Example A-9]
13

---

- System: P. multocida
- Assay Text: In-vitro MIC model, P. multocida
- Format: cell-based
- Condition Notes: P. multocida ATCC 43137
Reported Metric: MIC

Any idea what its MIC is? The molecule is CCCNC[C@]1(O)[C@H](C)O[C@@H](O[C@H]2[C@H](C)[C@@H](O[C@@H]3O[C@H](C)C[C@H]4[C@H]3OC(=NCC(F)(F)F)N4C)[C@](C)(O)C[C@@H](C)CN[C@H](C)[C@@H](O)[C@](C)(O)[C@@H](CC)OC(=O)[C@@H]2C)C[C@@]1(C)OC (mixture of isomers)
>64 µg/mL

Any idea what its MIC is? The molecule is CC[C@H]1OC(=O)[C@H](C)[C@@H](O[C@H]2C[C@@](C)(OC)[C@](O)(CN3CCOCC3)[C@H](C)O2)[C@H](C)[C@@H](O[C@@H]2O[C@H](C)C[C@H]3[C@H]2OC(=Nc2ccccc2)N3C)[C@](C)(O)C[C@@H](C)CN[C@H](C)[C@@H](O)[C@]1(C)O (mixture of isomers)
>64 µg/mL

---

- System: P. multocida 46572
- Assay Text: In vivo mouse lung infection challenge model (murine efficacy model)
- Condition Notes: 20 mg/kg subcutaneous, CD-1 mice, intranasal challenge, to Day 10; approximate (~%), harmonized relative to vehicle and M9
Reported Metric: % Survival (%)
Numbers only; they are read as %.

Any idea what its % Survival is? The compound is CC[C@H]1OC(=O)[C@H](C)[C@@H](O[C@H]2C[C@@](C)(OC)[C@](O)(CNCC(C)C)[C@H](C)O2)[C@H](C)[C@@H](O[C@@H]2O[C@H](C)C[C@H]3[C@H]2OC(=Nc2ccc(OC)nc2)N3C)[C@](C)(O)C[C@@H](C)CN[C@H](C)[C@@H](O)[C@]1(C)O (mixture of isomers) [Example A-28]
53

Any idea what its % Survival is? The compound is CC[C@H]1OC(=O)[C@H](C)[C@@H](O[C@H]2C[C@@](C)(OC)[C@](O)(CN3CCOCC3)[C@H](C)O2)[C@H](C)[C@@H](O[C@@H]2O[C@H](C)C[C@H]3[C@H]2OC(=Nc2ccc(OC)cc2)N3C)[C@](C)(O)C[C@@H](C)CN[C@H](C)[C@@H](O)[C@]1(C)O (mixture of isomers) [Example B-4]
37

Any idea what its % Survival is? The compound is CCCNC[C@]1(O)[C@H](C)O[C@@H](O[C@H]2[C@H](C)[C@@H](O[C@@H]3O[C@H](C)C[C@H]4[C@H]3OC(=Nc3ccc(OC)cc3)N4C)[C@](C)(O)C[C@@H](C)CN[C@H](C)[C@@H](O)[C@](C)(O)[C@@H](CC)OC(=O)[C@@H]2C)C[C@@]1(C)OC (mixture of isomers) [Example A-9]
64

---

- Tested on: IL-1β
- Assay Text: Bovine whole blood assay, IL-1β
- Assay type: cell-based
- Condition Notes: drug concentration giving overstimulation of IL-1β over LPS (cellular toxicity signal)
Reported Metric: IL-Iβ OS of LPS (µM)
Numbers only; they are read as µM.

Any idea what its IL-Iβ OS of LPS is? The compound is CCCNC[C@]1(O)[C@H](C)O[C@@H](O[C@H]2[C@H](C)[C@@H](O[C@@H]3O[C@H](C)C[C@H]4[C@H]3OC(=Nc3ccccc3)N4Cc3ccccc3)[C@](C)(O)C[C@@H](C)CN[C@H](C)[C@@H](O)[C@](C)(O)[C@@H](CC)OC(=O)[C@@H]2C)C[C@@]1(C)OC (mixture of isomers)
2

Any idea what its IL-Iβ OS of LPS is? The compound is CC[C@H]1OC(=O)[C@H](C)[C@@H](O[C@H]2C[C@@](C)(OC)[C@](O)(CN3CCN(CC)CC3)[C@H](C)O2)[C@H](C)[C@@H](O[C@@H]2O[C@H](C)C[C@H]3[C@H]2OC(=Nc2ccccc2)N3C)[C@](C)(O)C[C@@H](C)CN[C@H](C)[C@@H](O)[C@]1(C)O (mixture of isomers)
13

Any idea what its IL-Iβ OS of LPS is? The compound is CC[C@H]1OC(=O)[C@H](C)[C@@H](O[C@H]2C[C@@](C)(OC)[C@](O)(CNCC3CC3)[C@H](C)O2)[C@H](C)[C@@H](O[C@@H]2O[C@H](C)C[C@H]3[C@H]2OC(=Nc2ccc(OC)nc2)N3C)[C@](C)(O)C[C@@H](C)CN[C@H](C)[C@@H](O)[C@]1(C)O (mixture of isomers)
16

Any idea what its IL-Iβ OS of LPS is? The compound is CC[C@H]1OC(=O)[C@H](C)[C@@H](O[C@H]2C[C@@](C)(OC)[C@](O)(CN3CCN(C)CC3)[C@H](C)O2)[C@H](C)[C@@H](O[C@@H]2O[C@H](C)C[C@H]3[C@H]2OC(=Nc2ccccc2)N3C)[C@](C)(O)C[C@@H](C)CN[C@H](C)[C@@H](O)[C@]1(C)O (mixture of isomers)
13

Any idea what its IL-Iβ OS of LPS is? The compound is CC[C@H]1OC(=O)[C@H](C)[C@@H](O[C@H]2C[C@@](C)(OC)[C@](O)(CN3CCOCC3)[C@H](C)O2)[C@H](C)[C@@H](O[C@@H]2O[C@H](C)C[C@H]3[C@H]2OC(=Nc2ccc(OC)cc2)N3C)[C@](C)(O)C[C@@H](C)CN[C@H](C)[C@@H](O)[C@]1(C)O (mixture of isomers)
13

Any idea what its IL-Iβ OS of LPS is? The compound is CC[C@H]1OC(=O)[C@H](C)[C@@H](O[C@H]2C[C@@](C)(OC)[C@](O)(CNCCOC)[C@H](C)O2)[C@H](C)[C@@H](O[C@@H]2O[C@H](C)C[C@H]3[C@H]2OC(=Nc2ccc(OC)cc2)N3C)[C@](C)(O)C[C@@H](C)CN[C@H](C)[C@@H](O)[C@]1(C)O (mixture of isomers)
32

Any idea what its IL-Iβ OS of LPS is? The compound is CCCNC[C@]1(O)[C@H](C)O[C@@H](O[C@H]2[C@H](C)[C@@H](O[C@@H]3O[C@H](C)C[C@H]4[C@H]3OC(=Nc3ccccc3)N4C)[C@](C)(O)C[C@@H](C)CN(CCC)[C@H](C)[C@@H](O)[C@](C)(O)[C@@H](CC)OC(=O)[C@@H]2C)C[C@@]1(C)OC (mixture of isomers)
6

Any idea what its IL-Iβ OS of LPS is? The compound is CCCNC[C@]1(O)[C@H](C)O[C@@H](O[C@H]2[C@H](C)[C@@H](O[C@@H]3O[C@H](C)C[C@H]4[C@H]3OC(=Nc3ccc(OC)cc3)N4C)[C@](C)(O)C[C@@H](C)CN(C)[C@H](C)[C@@H](O)[C@](C)(O)[C@@H](CC)OC(=O)[C@@H]2C)C[C@@]1(C)OC (mixture of isomers)
16

Any idea what its IL-Iβ OS of LPS is? The compound is CCCNC[C@]1(O)[C@H](C)O[C@@H](O[C@H]2[C@H](C)[C@@H](O[C@@H]3O[C@H](C)C[C@H]4[C@H]3OC(=Nc3ccccc3)N4CC(C)C)[C@](C)(O)C[C@@H](C)CN[C@H](C)[C@@H](O)[C@](C)(O)[C@@H](CC)OC(=O)[C@@H]2C)C[C@@]1(C)OC (mixture of isomers)
2

Any idea what its IL-Iβ OS of LPS is? The compound is CCCNC[C@]1(O)[C@H](C)O[C@@H](O[C@H]2[C@H](C)[C@@H](O[C@@H]3O[C@H](C)C[C@H]4[C@H]3OC(=Nc3ccccc3)N4C)[C@](C)(O)C[C@@H](C)CN[C@H](C)[C@@H](O)[C@](C)(O)[C@@H](CC)OC(=O)[C@@H]2C)C[C@@]1(C)OC (mixture of isomers)
13

Any idea what its IL-Iβ OS of LPS is? The compound is CC[C@H]1OC(=O)[C@H](C)[C@@H](O[C@H]2C[C@@](C)(OC)[C@](O)(CNCC(C)C)[C@H](C)O2)[C@H](C)[C@@H](O[C@@H]2O[C@H](C)C[C@H]3[C@H]2OC(=Nc2ccc(OC)nc2)N3C)[C@](C)(O)C[C@@H](C)CN[C@H](C)[C@@H](O)[C@]1(C)O (mixture of isomers)
16
